pKd: −log10 of the molar value.
Below are compounds with their pKd as measured on E. coli NTH-RNase E (Escherichia coli, UniProt P21513).
Sequence (P21513 1-529): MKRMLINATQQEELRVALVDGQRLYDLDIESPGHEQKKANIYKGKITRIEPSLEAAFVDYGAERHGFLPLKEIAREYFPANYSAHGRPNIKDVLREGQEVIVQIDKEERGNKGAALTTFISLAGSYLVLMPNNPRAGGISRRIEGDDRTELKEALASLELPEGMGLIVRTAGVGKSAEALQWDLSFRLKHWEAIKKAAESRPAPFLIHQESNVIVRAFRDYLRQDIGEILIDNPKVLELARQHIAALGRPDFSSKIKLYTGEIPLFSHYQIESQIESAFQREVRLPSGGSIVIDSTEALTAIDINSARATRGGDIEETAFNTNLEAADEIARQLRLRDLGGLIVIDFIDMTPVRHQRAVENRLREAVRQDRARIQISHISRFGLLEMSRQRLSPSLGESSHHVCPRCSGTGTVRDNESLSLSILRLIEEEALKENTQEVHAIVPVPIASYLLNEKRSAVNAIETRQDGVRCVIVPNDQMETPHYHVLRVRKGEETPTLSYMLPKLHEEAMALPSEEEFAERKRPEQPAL

Examples from the recorded data:
{"Compound": "Cc1nnsc1-c1onc(C)c1C(=O)O/N=C/c1cccc(Cl)c1 [M9]", "pKd": "~2.70"}
{"Compound": "Cc1onc(-c2c(Cl)cccc2Cl)c1C(=O)N=S(C)(C)=O [M3]", "pKd": "~3.22"}
{"Compound": "CCOC(=O)NC(=O)c1cn(Nc2ncc(Cl)cc2C(F)(F)F)c(=O)[nH]c1=O [M5]", "pKd": "~2.52"}

Lab note: next compound to report on.
Req: I'm curious: which pKd was measured for Cc1c(C(=O)NNc2cc(C(F)(F)F)ccc2Cl)n(C)oc1=O [M8] tested on E. coli NTH-RNase E (Escherichia coli, UniProt P21513)?
Resp: ~2.46
